Inhibition: recorded values
Test system: Staphylococcus aureus
condition.details: Concentration 32 ug.mL-1;; ASSAY_TEST Inhibition of Bacterial Growth; detection method Absorption (OD600); MEDIA CAMHB; plate type 384well; NBS; CORNING #3640; time 18 hr
Description: Antibacterial activity against Staphylococcus aureus MRSA ATCC 43300 (CO-ADD:GP_020); MIC in CAMBH media, using NBS plates, by OD(600)
Measured potencies and affinities stand elsewhere.
Record the value in %, omitting the unit from your answer.

compound: CCC(Sc1nnc2c(=O)n(-c3cccc(OC)c3)ccn12)C(=O)Nc1cc(C)ccc1C (stereo not given)
measured.on: Staphylococcus aureus
readout.value: 5.06

Input line: Tell me reported Inhibition for O=C(Cn1nc2c3cc(-c4ccc(Cl)cc4)nn3ccn2c1=O)Nc1ccc(F)cc1 , tested with Staphylococcus aureus.
Output line: 7.29

Input line: Now give it for N#CCSc1nnc2c(=O)n(-c3ccc(Br)cc3)ccn12 too.
Output line: 14.93

Input line: Now give it for COc1cc(NC(=O)C(C)Sc2nnc3c(=O)n(-c4ccc(C)c(C)c4)ccn23)cc(OC)c1 (stereo not given) too.
Output line: -0.67

Input line: Now give it for CC(C)c1nnc2c(=O)n(CC(=O)Nc3cc(Cl)ccc3Cl)c3ccccc3n12 too.
Output line: 3.75

Input line: Now give it for COc1cccc(NC(=O)Cn2nc3c(Oc4ccccc4)nccn3c2=O)c1 too.
Output line: 0.03

Input line: Now give it for CC(C)c1nnc2c(=O)n(CC(=O)Nc3ccc(Br)cc3)c3ccccc3n12 too.
Output line: 9.7

Input line: Now give it for COc1cccc(CN(c2ccc(C)c(F)c2)S(=O)(=O)c2ccc3nncn3c2)c1 too.
Output line: -7.58

Input line: Now give it for Cc1cc(C)cc(N(Cc2ccccc2)S(=O)(=O)c2cccn3cnnc23)c1 too.
Output line: -25.73

Input line: Now give it for Cc1cccc(N(Cc2cccc(Cl)c2)S(=O)(=O)c2cccn3c(C)nnc23)c1 too.
Output line: 2.81

Input line: Now give it for COc1ccc(NC(=O)Cn2nc3nc(N4CCOCC4)ccn3c2=O)cc1F too.
Output line: -2.35

Input line: Now give it for CC(C)Sc1ccc2nn(CC(=O)Nc3ccc(Cl)cc3F)c(=O)n2n1 too.
Output line: 9.58

Input line: Now give it for Cc1ccc(C(=O)C(C)Sc2nnc3c(=O)n(-c4ccc(F)c(F)c4)ccn23)cc1C (stereo not given) too.
Output line: 19.73

Input line: Now give it for Cc1ccccc1Oc1nccn2c(=O)n(CC(=O)Nc3ccc(F)cc3F)nc12 too.
Output line: 15.72

Input line: Now give it for Cc1cc2nn(CC(=O)Nc3ccc(F)c(F)c3)c(=O)n2c(Nc2ccc(F)c(C)c2)n1 too.
Output line: 9.7

Input line: Now give it for COc1ccccc1-n1ccn2c(=O)n(Cc3ccc(F)cc3Cl)nc2c1=O too.
Output line: 9.6

Input line: Now give it for Cc1ccc(Oc2nc3ccccc3n3c(=O)n(CC(=O)Nc4cccc(C(F)(F)F)c4)nc23)cc1 too.
Output line: 0.5

Input line: Now give it for Cc1ccc(Sc2nccn3c(=O)n(CC(=O)Nc4ccccc4Br)nc23)c(C)c1 too.
Output line: -0.81

Input line: Now give it for Cc1cccc(NC(=O)Cn2nc3ccc(-c4ccc(Cl)cc4)nn3c2=O)c1C too.
Output line: 5.25

Input line: Now give it for COc1ccc(NC(=O)c2ccc3nn(CC(=O)Nc4cccc(SC)c4)c(=O)n3c2)cc1 too.
Output line: -4.7

meta.source: ChEMBL document CHEMBL4513146
